target: SARS-CoV-2 PLpro (Severe acute respiratory syndrome coronavirus 2 (2019-nCoV) (SARS-CoV-2), UniProt P0DTD1); assay: PLpro enzymatic inhibition assay (IC50 value determination); conditions: 60 min preincubation for covalent inhibitors, 10 min for non-covalent, read-out: Inhibition of SARS-CoV-2 PLpro IC50 range
pIC50: −log10 of the molar value.
QUANTITY KIND: pIC50

Query :: Fill in reported pIC50 for this entry: C#CCNC(=O)CNC(=O)CN(C1CCN(C(C)c2c(F)ccc3ccccc23)CC1)S(C)(=O)=O (centres unmarked)
Result :: 6.00 to 7.00

Query :: Fill in reported pIC50 for this entry: C#CCNC(=O)CNC(=O)CN(C1CCN([C@H](C)c2cccc3ccccc23)CC1)S(N)(=O)=O [Compound 145, 2,2,2-trifluoroacetate]
Result :: > 7.00

Query :: Fill in reported pIC50 for this entry: "COC(=O)/C=C/CNC(=O)CNC(=O)CN(C(=O)C1CCCC1)C1CCN([C@H](C)c2cccc3ccccc23)CC1"
Result :: 6.00 to 7.00

Query :: Fill in reported pIC50 for this entry: "COC(=O)/C=C/CNC(=O)CNC(=O)[C@@H](C)NC1CCN([C@H](C)c2cccc3ccccc23)CC1"
Result :: 5.00 to 6.00

Query :: Fill in reported pIC50 for this entry: "C#CCNC(=O)CCC(=O)CN(C1CCN([C@H](C)c2cccc3ccccc23)CC1)S(C)(=O)=O"
Result :: 5.00 to 6.00

Others:
Query :: Fill in reported pIC50 for this entry: C#CCNC(=O)CNC(=O)CN(C1CCN(C(C)c2cccc(-c3ccccc3)c2)CC1)S(C)(=O)=O (centres unmarked)
Result :: 6.00 to 7.00

Query :: Fill in reported pIC50 for this entry: "C#CCNC(=O)CNC(=O)CN(C1CCN([C@H](C)c2cccc3ccccc23)CC1)S(=O)(=O)C(F)(F)F"
Result :: > 7.00

Query :: Fill in reported pIC50 for this entry: "COC(=O)/C=C/CNC(=O)CNC(=O)CN(C(=O)CC(C)C)C1CCN([C@H](C)c2cccc3ccccc23)CC1"
Result :: > 7.00

Query :: Fill in reported pIC50 for this entry: "COC(=O)/C=C/CNC(=O)CNC(=O)CN(C)C1CCN([C@H](C)c2cccc3ccccc23)CC1"
Result :: > 7.00

Query :: Fill in reported pIC50 for this entry: COC(=O)/C=C/CNC(=O)CNC(=O)CN(C(=O)CC(F)(F)F)C1CCN(C(C)c2cccc3ccccc23)CC1 (centres unmarked)
Result :: 6.00 to 7.00

====

Recorded pIC50 values for a group of compounds are listed next.
molecular target: SARS-CoV-2 PLpro (Severe acute respiratory syndrome coronavirus 2 (2019-nCoV) (SARS-CoV-2), UniProt P0DTD1); assay: PLpro enzymatic inhibition assay (IC50 value determination); settings: 60 min preincubation for covalent inhibitors, 10 min for non-covalent, read-out: Inhibition of SARS-CoV-2 PLpro IC50 range
pIC50: −log10 of the molar value.

Query :: Fill in reported pIC50 for this entry: "COC(=O)/C=C/CNC(=O)CNC(=O)CNC1CCN([C@H](C)c2cccc3ccccc23)CC1"
Result :: 6.00 to 7.00

Query :: Fill in reported pIC50 for this entry: C#CCNC(=O)CNC(=O)CN(C1CCN(C(C)c2cccc3ccccc23)CC1)S(=O)(=O)N1CCN(CC(=O)O)CC1 (stereo not shown)
Result :: 5.00 to 6.00

Query :: Fill in reported pIC50 for this entry: "COC(=O)/C=C/CNC(=O)CNC(=O)[C@H](CN)NC1CCN([C@H](C)c2cccc3ccccc23)CC1"
Result :: 6.00 to 7.00

Below: the item to evaluate.
Query :: Fill in reported pIC50 for this entry: C#CCCNC(=O)CNC(=O)CN(C1CCN(C(C)c2cccc3ccccc23)CC1)S(C)(=O)=O (stereo not shown)
Result :: 6.00 to 7.00

====

Recorded IC50 values for a group of compounds are listed next.
biological target: SARS-CoV-2 PLpro (Severe acute respiratory syndrome coronavirus 2 (2019-nCoV) (SARS-CoV-2), UniProt P0DTD1); experiment: PLpro enzymatic inhibition assay (IC50 value determination); settings: 60 min preincubation for covalent inhibitors, 10 min for non-covalent, read-out: Inhibition of SARS-CoV-2 PLpro IC50 range

Query :: Fill in reported IC50 for this entry: "C#CCNC(=O)CNC(=O)CN(CCC(C)=O)C1CCN([C@H](C)c2cccc3ccccc23)CC1"
Result :: < 100 nM

Query :: Fill in reported IC50 for this entry: C#CCNC(=O)CNC(=O)CN(C1CCN(C(C)c2ccc3ccccc3c2)CC1)S(C)(=O)=O (stereo not drawn)
Result :: < 100 nM

Query :: Fill in reported IC50 for this entry: "C#CCNC(=O)CNC(=O)CN(C1CCN(c2nc3ccccc3s2)CC1)S(C)(=O)=O"
Result :: 100 to 1000 nM

Query :: Fill in reported IC50 for this entry: C#CCNC(=O)CNC(=O)CN(C1CCN(C(C)c2cccc3cccnc23)CC1)S(C)(=O)=O (stereo not drawn)
Result :: 100 to 1000 nM

Query :: Fill in reported IC50 for this entry: C#CCNC(=O)CNC(=O)CN(C1CCN([C@H](C)c2cccc3ccccc23)CC1)S(=O)(=O)N1CCC(C(=O)OC)C1 (stereo partly drawn)
Result :: < 100 nM

Others:
Query :: Fill in reported IC50 for this entry: "C#CCNC(=O)CNC(=O)CN(C1CCN([C@@H](C)c2cccc3ccccc23)CC1)S(C)(=O)=O"
Result :: < 100 nM

Query :: Fill in reported IC50 for this entry: "C#CCNC(=O)CNC(=O)[C@@H](C)N(C1CCN([C@H](C)c2cccc3ccccc23)CC1)S(C)(=O)=O"
Result :: < 100 nM

Query :: Fill in reported IC50 for this entry: C#CCNC(=O)CNC(=O)CN(C(=O)CCC(=O)O)C1CCN(C(C)c2cccc3ccccc23)CC1 (stereo not drawn)
Result :: 1000 to 10000 nM

Query :: Fill in reported IC50 for this entry: C#CCNC(=O)CNC(=O)CN(C1CCN(C(c2cccc3ccccc23)C(F)F)CC1)S(C)(=O)=O (stereo not drawn)
Result :: 1000 to 10000 nM

====

target: SARS-CoV-2 PLpro (Severe acute respiratory syndrome coronavirus 2 (2019-nCoV) (SARS-CoV-2)); experiment: PLpro enzymatic inhibition assay (IC50 value determination); conditions: 60 min preincubation for covalent inhibitors, 10 min for non-covalent, read-out: Inhibition of SARS-CoV-2 PLpro IC50 range
QUANTITY KIND: IC50

Worked examples follow.
Query :: Fill in reported IC50 for this entry: COC(=O)/C=C/CNC(=O)CNC(=O)CN(C1CCN([C@H](C)c2cccc3ccccc23)CC1)S(=O)(=O)NC(=O)OC(C)(C)C [Compound 23]
Result :: 100 to 1000 nM

Query :: Fill in reported IC50 for this entry: CCC(=O)N(CC(=O)NCC(=O)NC/C=C/C(=O)OC)C1CCN(C(C)c2cccc3ccccc23)CC1 (stereo not shown) [Compound 15]
Result :: < 100 nM

Query :: Fill in reported IC50 for this entry: C#CCNC(=O)CNC(=O)CN(C1CCN([C@H](C)c2cccc3ccccc23)CC1)S(C)(=O)=O [Compound 21]
Result :: < 100 nM

Below: the item to evaluate.
Query :: Fill in reported IC50 for this entry: C#CCNC(=O)CNC(=O)CN(C1CCN(C(C)c2ccc(Cl)cc2Cl)CC1)S(C)(=O)=O (stereo not shown) [Compound 120]
Result :: 100 to 1000 nM
